- EXPERIMENT_NOTES: Displacement of [3H]BTX-B from neurotoxin site 2 of voltage gated sodium channel in rat cerebral cortex synaptoneurosomes after 30 mins by scintillation counting
- Format: tissue-based
In this section we review reported IC50 values for a set of molecules.
Could you give me the number in µM? Just the number is fine.

[
  {
    "SMILES_RECORD": "CC1(C)N=C(N)N=C(Nc2ccccc2Cl)N1",
    "VALUE_UNITS": "µM",
    "IC50": 85.5
  },
  {
    "SMILES_RECORD": "CC1(C)N=C(N)N=C(Nc2cccc(Cl)c2)N1",
    "VALUE_UNITS": "µM",
    "IC50": 16.5
  },
  {
    "SMILES_RECORD": "Cc1ccc(CN2C(N)=NC(N)=NC2(C)C)cc1",
    "VALUE_UNITS": "µM",
    "IC50": 32.2
  },
  {
    "SMILES_RECORD": "NC1=NC2(CCCCC2)N(c2ccccc2)C(N)=N1",
    "VALUE_UNITS": "µM",
    "IC50": 14.7
  },
  {
    "SMILES_RECORD": "Nc1nc(CCl)nc(Nc2ccc(Cl)c(Cl)c2)n1",
    "VALUE_UNITS": "µM",
    "IC50": 168
  }
]

Problem: Given the molecule `COc1ccc(CN2C(N)=NC(N)=NC2(C)C)cc1` , what is its reported IC50?
Result: 59.8

Problem: Given the molecule `Nc1nc(CCl)nc(Nc2cccc(Br)c2)n1` , what is its reported IC50?
Result: 172

Problem: Given the molecule `Cc1ccc(NC2=NC(N)=NC(C)(C)N2)cc1` , what is its reported IC50?
Result: 71.5

Problem: Given the molecule `Cc1nc(N)nc(Nc2cccc(Br)c2)n1` , what is its reported IC50?
Result: 198

Problem: Given the molecule `CC1(C)N=C(N)N=C(N)N1Cc1ccc(Cl)cc1` , what is its reported IC50?
Result: 35.3

Problem: Given the molecule `CC1(C)N=C(N)N=C(Nc2cccc(Br)c2)N1` , what is its reported IC50?
Result: 12.6

Problem: Given the molecule `CC1(C)N=C(N)NC(Nc2ccc(Br)cc2)=N1` , what is its reported IC50?
Result: 18.4

* * *

In this section we review reported log10 IC50 values for a set of molecules.
- EXPERIMENT_NOTES: Displacement of [3H]BTX-B from neurotoxin site 2 of voltage gated sodium channel in rat cerebral cortex synaptoneurosomes after 30 mins by scintillation counting
- Format: tissue-based
Response schema: value (number) is log10 of IC50 in units of µM.

Illustrative cases are given below, each with its answer.
[
  {
    "SMILES_RECORD": "O=C1NC(=O)C(c2ccccc2)(c2ccccc2)N1",
    "PARAMETER": "log10 IC50",
    "ENDPOINT_VALUE": 2.10
  },
  {
    "SMILES_RECORD": "COc1ccccc1NC1=NC(N)=NC(C)(C)N1",
    "PARAMETER": "log10 IC50",
    "ENDPOINT_VALUE": 2.54
  },
  {
    "SMILES_RECORD": "Cc1cccc(NC2=NC(N)=NC(C)(C)N2)c1",
    "PARAMETER": "log10 IC50",
    "ENDPOINT_VALUE": 2.27
  }
]

Problem: Given the molecule `NC1=NC2(CCCCC2)N(c2ccccc2Cl)C(N)=N1` , what is its reported log10 IC50?
Result: 1.11

Problem: Given the molecule `Cc1ccccc1NC1=NC(N)=NC(C)(C)N1` , what is its reported log10 IC50?
Result: 2.76

Problem: Given the molecule `Cc1nc(N)nc(Nc2ccc(Cl)c(Cl)c2)n1` , what is its reported log10 IC50?
Result: 2.44
